Kindly state fold change in adpc expression, geometric mean (95% C.I.) for each of the entries shown.
Tested on: P. intermedia virulence genes
Assay: Virulence gene expression in multi-species biofilm (SYBR RT-qPCR)
Type: cell-based
Conditions: upper part of Table 6d, substrate 1 M; relative to control = 1; n = 3
Marks after values point to notes of the source that are not given here.

compound: OC[C@H]1O[C@H](O[C@H]2O[C@H](CO)[C@@H](O)[C@H](O)[C@H]2O)[C@H](O)[C@@H](O)[C@@H]1O [D-trehalose, D-(+)-trehalose]
result: 1.45 (0.76-2.77) fold

compound: CC(=O)N[C@H]1C(O)O[C@H](CO)[C@@H](O)[C@@H]1O (stereo partly drawn) [NADG, N-acetyl-D-glucosamine]
result: 2.65 (1.25-5.62)* fold

compound: OC[C@H]1O[C@H](OC[C@H]2O[C@H](O[C@]3(CO)O[C@H](CO)[C@@H](O)[C@@H]3O)[C@H](O)[C@@H](O)[C@@H]2O)[C@H](O)[C@@H](O)[C@H]1O [D-raffinose, D-(+)-raffinose]
result: 1.02 (0.40-2.60) fold

Now turn to the next compound.
Query: Look up fold change in adpc expression, geometric mean (95% C.I.) for this compound: OC[C@H]1O[C@@H](O[C@H]2[C@H](O)[C@@H](O)[C@@H](O)O[C@@H]2CO)[C@H](O)[C@@H](O)[C@H]1O [D-lactose, α-D-lactose]
Reply: 0.30 (0.23-0.39)^∗ fold

----------
System: A. actinomycetemcomitans virulence genes
Test: Virulence gene expression in multi-species biofilm (SYBR RT-qPCR)
Type: cell-based
Details: substrate 1 M; relative to control = 1, 2^-ΔΔCt; n = 3
Marks after values point to notes of the source that are not given here.
Kindly state fold change in cdtB expression, geometric mean (95% C.I.) for each of the entries shown.

Give fold change in cdtB expression, geometric mean (95% C.I.) for each of the items listed below.
1. OC[C@H]1O[C@H](O[C@H]2O[C@H](CO)[C@@H](O)[C@H](O)[C@H]2O)[C@H](O)[C@@H](O)[C@@H]1O [D-trehalose, D-(+)-trehalose]
2. OC[C@H]1O[C@@H](O[C@H]2[C@H](O)[C@@H](O)[C@@H](O)O[C@@H]2CO)[C@H](O)[C@@H](O)[C@H]1O [D-lactose, α-D-lactose]
3. CC(=O)N[C@H]1C(O)O[C@H](CO)[C@@H](O)[C@@H]1O (stereo partly drawn) [NADG, N-acetyl-D-glucosamine]
4. OC[C@H]1O[C@H](OC[C@H]2O[C@H](O[C@]3(CO)O[C@H](CO)[C@@H](O)[C@@H]3O)[C@H](O)[C@@H](O)[C@@H]2O)[C@H](O)[C@@H](O)[C@H]1O [D-raffinose, D-(+)-raffinose]

Reply:
["0.08 (0.03-0.21)^∗ fold", "0.02 (0.00-0.21)^∗ fold", "0.04 (0.01-0.20)* fold", "0.07 (0.02-0.25)^∗ fold"]

----------
Kindly state fold change in phg expression, geometric mean (95% C.I.) for each of the entries shown.
Test system: P. intermedia virulence genes
Assay: Virulence gene expression in multi-species biofilm (SYBR RT-qPCR)
Assay type: cell-based
Conditions: lower part of Table 6d, head prints 1 M (lower part 1%(w/v)); relative to control = 1
Description: Biofilms are grown vertically on Calcium Deficient Hydroxyapatite (CAD-HA) disks (Hitemco Medical, Old Bethpage, USA) using the Amsterdam Active Adhesion model. […] The virulence of the substrate-treated multi-species biofilms are evaluated by analyzing the relative expression of 33 genes that are recognized as being related to some form of virulence and from 4 periodontal pathogens. […]

Record excerpt, results attached:
molecule: CC(=O)N[C@H]1C(O)O[C@H](CO)[C@@H](O)[C@@H]1O (stereo partly shown)
result: 0.69 (0.47-1.00) fold
--
molecule: OC[C@H]1O[C@@H](O[C@H]2[C@H](O)[C@@H](O)[C@@H](O)O[C@@H]2CO)[C@H](O)[C@@H](O)[C@H]1O
result: 0.39 (0.19-0.77)^∗ fold
--
molecule: OC[C@H]1O[C@H](OC[C@H]2O[C@H](O[C@]3(CO)O[C@H](CO)[C@@H](O)[C@@H]3O)[C@H](O)[C@@H](O)[C@@H]2O)[C@H](O)[C@@H](O)[C@H]1O [D-raffinose, D-(+)-raffinose]
result: 0.73 (0.33-1.63) fold

Now turn to the next molecule.
Query: fold change in phg expression, geometric mean (95% C.I.) of OC[C@H]1O[C@H](O[C@H]2O[C@H](CO)[C@@H](O)[C@H](O)[C@H]2O)[C@H](O)[C@@H](O)[C@@H]1O [D-trehalose, D-(+)-trehalose] on P. intermedia virulence genes?
Reply: 0.86 (0.82-0.89) fold
